molecular target: Virion infectivity factor (Human immunodeficiency virus type 1 group M subtype B (isolate BH10)) + Virion infectivity factor (Human immunodeficiency virus type 1 group M subtype B (isolate BRU/LAI)) + Virion infectivity factor (Human immunodeficiency virus type 1 group M subtype B (isolate PCV12)) + Virion infectivity factor (Human immunodeficiency virus type 1 group M subtype B (isolate HXB2)) + DNA dC->dU-editing enzyme APOBEC-3G (Homo sapiens) (UniProt P69720+P69721+P69722+P69723+Q9HC16); assay: inhibitors of Vif binding to APOBEC3G peptide, primary screen, biochemical, TR-FRET, GST-Vif 1-94, biotin-A3G peptide, dose response retest (AID 1117319); settings: stronger effect = higher value;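 also: Vif residues 1-94 fused to GST binding biotinylated APOBEC3G peptide 110-148; 0% = full assay without inhibitor and 100% = GST in place of GST-Vif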
Screen size: about 260,000 compounds; about 1,500 (0.58%) were called active. Roughly 5% stayed inconclusive and do not appear here. These entries were drawn from the full list. Entries with a potency or affinity are not part of this list.
Measured inhibition, listed per entry for reference.

{"COMPOUND": "CCOC(=O)Nc1ccc2c(c1)OCO2", "inhibition [%]": -0.36}
{"COMPOUND": "O=C1/C(=C/c2ccccn2)SC(=S)N1c1cccc(O)c1", "inhibition [%]": 1.67}
{"COMPOUND": "CCOC(=O)COc1nc(-c2ccc(C)cc2)cc(-c2ccco2)c1C#N", "inhibition [%]": -6.28}
{"COMPOUND": "Cc1cc(C)n2nc(SCCCC(=O)c3ccccc3)nc2n1", "inhibition [%]": -0.54}
{"COMPOUND": "O=C(CCc1ccccc1)Nc1ccc(NS(=O)(=O)c2ccccc2)cc1", "inhibition [%]": 0.68}
{"COMPOUND": "Cc1c(-c2ccccc2)nc2ccccc2c1C(=O)NCc1cccs1", "inhibition [%]": 10.6}
{"COMPOUND": "CCOC(=O)COc1nc(-c2ccccc2)cc(-c2ccco2)c1C#N", "inhibition [%]": 4.55}
{"COMPOUND": "COC(=O)COc1ccc2c(c1)O/C(=C\\c1ccco1)C2=O", "inhibition [%]": 24}
{"COMPOUND": "Cc1ccc(CNC(=O)C2CC(=O)N(c3ccc(OCC(=O)N4CCCC4)cc3)C2)cc1 (stereo unspecified)", "inhibition [%]": -0.42}
{"COMPOUND": "COc1ccc(OC)c(NC(=O)NC2CCCCCCC2)c1", "inhibition [%]": -6.56}
{"COMPOUND": "Cc1cc(C)c2c(N)c(C(=O)N3CCc4ccccc4C3)sc2n1", "inhibition [%]": 2.97}
